Value source: paper PMC4786809

Assay: Liver concentrations and tissue pharmacokinetics after intravenous C3G
Assay type: in vivo, Wistar rats
Conditions: 20 min after i.v. 668 nmol C3G
Protocol: Twenty-two male Wistar rats (Rattus Norvegicus, Harlan Italy S.r.l.), of same age (15 weeks), 293–390 g of body weight, were used. The rats were randomly divided into 5 groups, according to the time that elapsed after intravenous administration of the test compound, and one control group. Each time point was represented by four biological replicates. […] During anaesthesia (10 min in all cases), the heart and ventilation rate were monitored. […]
Reported Metric: Mean concentration in liver (pmol/g)

[a] COc1cc(-c2[o+]c3cc(O)cc(O)c3cc2O[C@@H]2O[C@H](CO)[C@@H](O)[C@H](O)[C@H]2O)cc(O)c1O [PT3G, Petunidin-3-O-β-glucoside]
[b] COc1cc(-c2[o+]c3cc(O)cc(O)c3cc2O[C@@H]2O[C@H](CO)[C@@H](O)[C@H](O)[C@H]2O)ccc1O [PN3G, Peonidin-3-O-β-glucoside]
[c] OC[C@H]1O[C@@H](Oc2cc3c(O)cc(O)cc3[o+]c2-c2ccc(O)c(O)c2)[C@H](O)[C@@H](O)[C@@H]1O [C3G, Cyanidin-3-O-β-glucoside]
[d] COc1ccc(-c2[o+]c3cc(O)cc(O)c3cc2O[C@@H]2O[C@H](CO)[C@@H](O)[C@H](O)[C@H]2O)cc1O
Descending sort on Mean concentration in liver required. Please respond with the labels ordered as the question requires.
b, c, a, d
(b: 100.84 pmol/g, c: 5.54 pmol/g, a: 3.06 pmol/g, d: 0.64 pmol/g)

---

Assay: Plasma concentrations and pharmacokinetics after intravenous bolus of C3G (NCA and two-compartment model)
Assay type: in vivo, Wistar rats
Settings: male, Wistar, rat, plasma, iv, 668 nmol, non-compartmental analysis
Reported Metric: Tmax (s)
Numeric only. Scale: s

Suppose we examine the compound OC[C@H]1O[C@@H](Oc2cc3c(O)cc(O)cc3[o+]c2-c2ccc(O)c(O)c2)[C@H](O)[C@@H](O)[C@@H]1O [C3G, Cyanidin-3-O-β-glucoside] ; what Tmax value has been reported?
15

---

Assay: Liver concentrations and tissue pharmacokinetics after intravenous C3G
Format: in vivo, Wistar rats
Settings: 2 min after i.v. 668 nmol C3G
Protocol: Twenty-two male Wistar rats (Rattus Norvegicus, Harlan Italy S.r.l.), of same age (15 weeks), 293–390 g of body weight, were used. The rats were randomly divided into 5 groups, according to the time that elapsed after intravenous administration of the test compound, and one control group. Each time point was represented by four biological replicates. […] During anaesthesia (10 min in all cases), the heart and ventilation rate were monitored. […]
Reported Metric: Mean concentration in liver (pmol/g)

[P] COc1cc(-c2[o+]c3cc(O)cc(O)c3cc2O[C@@H]2O[C@H](CO)[C@@H](O)[C@H](O)[C@H]2O)ccc1O [PN3G, Peonidin-3-O-β-glucoside]
[Q] COc1cc(-c2[o+]c3cc(O)cc(O)c3cc2O[C@@H]2O[C@H](CO)[C@@H](O)[C@H](O)[C@H]2O)cc(O)c1O [PT3G, Petunidin-3-O-β-glucoside]
[R] COc1ccc(-c2[o+]c3cc(O)cc(O)c3cc2O[C@@H]2O[C@H](CO)[C@@H](O)[C@H](O)[C@H]2O)cc1O [isoPN3G]
[S] OC[C@H]1O[C@@H](Oc2cc3c(O)cc(O)cc3[o+]c2-c2ccc(O)c(O)c2)[C@H](O)[C@@H](O)[C@@H]1O [C3G, Cyanidin-3-O-β-glucoside]
Please produce an ascending ranking of these compounds based on Mean concentration in liver. Please respond with the labels ordered as the question requires.
Q, R, S, P

---

Experiment: Kidney concentrations and tissue pharmacokinetics after intravenous C3G
Assay type: in vivo, Wistar rats
Details: male, Wistar, rat, kidney, iv, 668 nmol; kidneys
Reported Metric: half-life (min)

[1] OC[C@H]1O[C@@H](Oc2cc3c(O)cc(O)cc3[o+]c2-c2ccc(O)c(O)c2)[C@H](O)[C@@H](O)[C@@H]1O [C3G, Cyanidin-3-O-β-glucoside]
[2] COc1cc(-c2[o+]c3cc(O)cc(O)c3cc2O[C@@H]2O[C@H](CO)[C@@H](O)[C@H](O)[C@H]2O)cc(O)c1O [PT3G, Petunidin-3-O-β-glucoside]
[3] COc1cc(-c2[o+]c3cc(O)cc(O)c3cc2O[C@@H]2O[C@H](CO)[C@@H](O)[C@H](O)[C@H]2O)ccc1O [PN3G, Peonidin-3-O-β-glucoside]
Lab note: order the above by reported half-life, lowest first, highest last. Dear reader, please state the labels in the requested order.
1, 3, 2
(1: 11.7 min, 3: 20.8 min, 2: 135 min)

---

Test: Liver concentrations and tissue pharmacokinetics after intravenous C3G
Format: in vivo, Wistar rats
Conditions: male, Wistar, rat, liver, iv, 668 nmol; read-out: Half-life
Reported Metric: half-life (min)

COc1cc(-c2[o+]c3cc(O)cc(O)c3cc2O[C@@H]2O[C@H](CO)[C@@H](O)[C@H](O)[C@H]2O)ccc1O [PN3G, Peonidin-3-O-β-glucoside]	9.99
OC[C@H]1O[C@@H](Oc2cc3c(O)cc(O)cc3[o+]c2-c2ccc(O)c(O)c2)[C@H](O)[C@@H](O)[C@@H]1O [C3G, Cyanidin-3-O-β-glucoside]	8.15

---

Assay: Plasma concentrations and pharmacokinetics after intravenous bolus of C3G (NCA and two-compartment model)
Type: in vivo, Wistar rats
Settings: male, Wistar, rat, plasma, intravenous, 668 nmol, estimate; read-out: Time for complete elimination (5–6 half-lives)
Reported Metric: time to complete elimination

Endpoint output: time to complete elimination of OC[C@H]1O[C@@H](Oc2cc3c(O)cc(O)cc3[o+]c2-c2ccc(O)c(O)c2)[C@H](O)[C@@H](O)[C@@H]1O [C3G, Cyanidin-3-O-β-glucoside] . Value?
40 to 50 min

---

Test: Plasma concentrations and pharmacokinetics after intravenous bolus of C3G (NCA and two-compartment model)
Assay type: in vivo, Wistar rats
Details: male, Wistar, rat, plasma, intravenous, 668 nmol, two-compartment model analysis; read-out: MRTP (mean residence time in the peripheral space) (converted)
Reported Metric: MRT (min)
Provide only the numeric value, understood in min.

State the recorded MRT for this entry: OC[C@H]1O[C@@H](Oc2cc3c(O)cc(O)cc3[o+]c2-c2ccc(O)c(O)c2)[C@H](O)[C@@H](O)[C@@H]1O [C3G, Cyanidin-3-O-β-glucoside]
6.68

---

Experiment: Urinary excretion after intravenous C3G
Assay type: in vivo, Wistar rats
Conditions: 15 min after i.v. 668 nmol C3G
Reported Metric: Urine concentration (nmol/g)

OC[C@H]1O[C@@H](Oc2cc3c(O)cc(O)cc3[o+]c2-c2ccc(O)cc2)[C@H](O)[C@@H](O)[C@@H]1O [PG3G, Pelargonidin-3-O-β-glucoside]	0.03322
OC[C@H]1O[C@@H](Oc2cc3c(O)cc(O)cc3[o+]c2-c2cc(O)c(O)c(O)c2)[C@H](O)[C@@H](O)[C@@H]1O [D3G, Delphinidin-3-O-β-glucoside]	0.02
OC[C@H]1O[C@@H](Oc2cc3c(O)cc(O)cc3[o+]c2-c2ccc(O)c(O)c2)[C@H](O)[C@@H](O)[C@@H]1O [C3G, Cyanidin-3-O-β-glucoside]	11.95

[A] COc1cc(-c2[o+]c3cc(O)cc(O)c3cc2O[C@@H]2O[C@H](CO)[C@@H](O)[C@H](O)[C@H]2O)cc(OC)c1O [M3G, Malvidin-3-O-β-glucoside]
[B] COc1cc(-c2[o+]c3cc(O)cc(O)c3cc2O[C@@H]2O[C@H](CO)[C@@H](O)[C@H](O)[C@H]2O)ccc1O [PN3G, Peonidin-3-O-β-glucoside]
Please let me know which one, A or B , has a lower measured Urine concentration value. Refer to your chosen entry by its label in the reply.
A
(A: 0.00317 nmol/g, B: 5.67 nmol/g)

---

Assay: Liver concentrations and tissue pharmacokinetics after intravenous C3G
Assay type: in vivo, Wistar rats
Settings: 0.25 min after i.v. 668 nmol C3G, mean ± SEM n=4
Reported Metric: Mean concentration in liver (pmol/g)

// worked examples, Mean concentration in liver included
COc1cc(-c2[o+]c3cc(O)cc(O)c3cc2O[C@@H]2O[C@H](CO)[C@@H](O)[C@H](O)[C@H]2O)ccc1O [PN3G, Peonidin-3-O-β-glucoside]	539.38
COc1cc(-c2[o+]c3cc(O)cc(O)c3cc2O[C@@H]2O[C@H](CO)[C@@H](O)[C@H](O)[C@H]2O)cc(O)c1O [PT3G, Petunidin-3-O-β-glucoside]	1.23

[A] OC[C@H]1O[C@@H](Oc2cc3c(O)cc(O)cc3[o+]c2-c2ccc(O)c(O)c2)[C@H](O)[C@@H](O)[C@@H]1O [C3G, Cyanidin-3-O-β-glucoside]
[B] COc1ccc(-c2[o+]c3cc(O)cc(O)c3cc2O[C@@H]2O[C@H](CO)[C@@H](O)[C@H](O)[C@H]2O)cc1O
Problem: Given the entries A and B , determine which has the lower reported Mean concentration in liver. # respond with the chosen item's label
B
